// TGI lookup, one value per entry
Tested on: HS 578T breast
Experiment: NCI tumour cell line growth inhibition, 48 h

Below are worked cases with known answers.
{"Compound": "CC1(C)/C(=C/N=O)N(O)C(C)(C)N1O", "TGI": "> 100 µM"}
{"Compound": "Cn1c([C@H](C#N)c2ncccc2[N+](=O)[O-])nc2ccccc21", "TGI": "75.1 µM"}

**Query** Endpoint output: TGI of CCOC(=O)Cc1nc2cc(F)c(F)cc2[nH]c1=O . Value?
**Result** > 100 µM

**Query** Endpoint output: TGI of CCCCC1Cc2ccccc2-c2nc3ccccc3n21 (stereo not drawn) . Value?
**Result** 35.4 µM

**Query** Endpoint output: TGI of C[N+]1(C)CCc2cc(O)c(O)cc2C1Cc1ccc(O)c(O)c1 (stereo not drawn) . Value?
**Result** > 100 µM

**Query** Endpoint output: TGI of COc1cc2ncnc(-n3ncc4cc(NC(=O)Nc5ccccc5)ccc43)c2cc1OC . Value?
**Result** 3.37 µM

**Query** Endpoint output: TGI of N#C[C@@H](c1ccccn1)c1ncccc1[N+](=O)[O-] . Value?
**Result** > 100 µM
